- System: KMO
- measurementDescription: KMO inhibition: L-Kynurenine hydroxylation to 3-Hydroxy-Kynurenine monitored by LC/MS
- Assay type: biochemical
- assaySetup: compound at 10 uM; footnote: some portion of activity of amides may be due to contribution of acid precursor
Measured % Inhibition at 10 uM* values are reported for all entries that follow.
Use % as the unit, but write only the number.

Param readout= % Inhibition at 10 uM*; system= KMO; entry= O=C(O)c1cc(-c2ccc(OC3CC3)c(Cl)c2)ccn1 ; returns value.
100

###

- Test system: KMO
- measurementDescription: KMO inhibition: L-Kynurenine hydroxylation to 3-Hydroxy-Kynurenine monitored by LC/MS
- Assay type: biochemical
- assaySetup: compound at 10 uM; footnote: some portion of activity of amides may be due to contribution of acid precursor
- From the text: A generalized procedure for monitoring L-Kynurenine (KYN) hydroxylation to form product 3-Hydroxy-Kynurenine (30H-KYN) by LC/MS is described below. Product is quantified by multiple reaction monitoring using MS. A method of monitoring L-Kynurenine (KYN) hydroxylation to form product 3-Hydroxy-Kynurenine (30H-KYN) by LC/MS is described below. Product is quantified by multiple reaction monitoring. […]
quantityMeasured: % Inhibition at 10 uM*
Give me the value, and tack the unit on after it.

Example entries and their recorded answers appear below.
[
  {
    "substanceSmiles": "CSc1ccc(-c2cc(C(=O)O)ncn2)cc1Cl",
    "measuredTarget": "KMO",
    "reportedMeasurement": "103%"
  },
  {
    "substanceSmiles": "O=C(O)c1cc(-c2ccc3c(c2)OCO3)ncn1",
    "measuredTarget": "KMO",
    "reportedMeasurement": "101%"
  },
  {
    "substanceSmiles": "O=C(O)c1cc(-c2ccc(OC3CC3)c(Cl)c2)ncn1",
    "measuredTarget": "KMO",
    "reportedMeasurement": "100%"
  },
  {
    "substanceSmiles": "O=C(O)c1cc(-c2cc(Cl)c3c(c2)CCCN3)ncn1",
    "measuredTarget": "KMO",
    "reportedMeasurement": "100%"
  },
  {
    "substanceSmiles": "Cc1c(C(=O)O)ncnc1-c1ccc(OC2CC2)c(Cl)c1",
    "measuredTarget": "KMO",
    "reportedMeasurement": "100%"
  }
]

Consider the record given below.
Dear colleague, I am looking for the recorded % Inhibition at 10 uM* of the following compound: Cc1nc(C(=O)O)cc(-c2ccc(OC(C)C)c(Cl)c2)n1
70%
